Molecular target: Tyrosine-protein kinase JAK3 (Homo sapiens) (UniProt P52333)
Sequence (whole entry): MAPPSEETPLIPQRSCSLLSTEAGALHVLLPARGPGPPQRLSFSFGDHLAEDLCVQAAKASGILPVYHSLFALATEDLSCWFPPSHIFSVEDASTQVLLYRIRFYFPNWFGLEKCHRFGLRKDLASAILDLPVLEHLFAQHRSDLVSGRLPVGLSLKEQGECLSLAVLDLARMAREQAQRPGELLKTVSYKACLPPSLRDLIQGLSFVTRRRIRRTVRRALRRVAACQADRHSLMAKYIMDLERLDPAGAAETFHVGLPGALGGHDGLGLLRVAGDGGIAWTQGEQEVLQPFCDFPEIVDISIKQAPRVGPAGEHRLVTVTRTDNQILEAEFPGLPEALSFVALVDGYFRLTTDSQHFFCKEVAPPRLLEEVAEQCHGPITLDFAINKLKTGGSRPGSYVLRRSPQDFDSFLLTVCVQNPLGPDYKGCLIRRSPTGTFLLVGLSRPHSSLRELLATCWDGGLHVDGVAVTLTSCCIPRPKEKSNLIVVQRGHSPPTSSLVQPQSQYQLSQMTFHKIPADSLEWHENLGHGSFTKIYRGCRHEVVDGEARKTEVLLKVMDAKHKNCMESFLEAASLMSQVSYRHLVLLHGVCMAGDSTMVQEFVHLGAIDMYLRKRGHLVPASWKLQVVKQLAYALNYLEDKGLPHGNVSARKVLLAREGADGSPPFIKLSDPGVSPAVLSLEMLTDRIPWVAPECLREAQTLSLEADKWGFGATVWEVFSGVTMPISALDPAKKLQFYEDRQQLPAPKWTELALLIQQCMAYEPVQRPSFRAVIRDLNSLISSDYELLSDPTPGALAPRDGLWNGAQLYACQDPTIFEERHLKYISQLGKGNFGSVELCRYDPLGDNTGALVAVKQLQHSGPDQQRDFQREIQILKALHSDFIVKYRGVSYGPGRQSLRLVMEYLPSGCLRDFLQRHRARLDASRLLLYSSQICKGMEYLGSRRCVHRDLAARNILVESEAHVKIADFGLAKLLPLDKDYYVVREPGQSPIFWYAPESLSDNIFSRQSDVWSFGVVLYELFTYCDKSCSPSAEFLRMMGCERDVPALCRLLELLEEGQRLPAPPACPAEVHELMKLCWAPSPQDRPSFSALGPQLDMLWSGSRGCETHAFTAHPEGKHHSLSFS
Experiment: Potency index, ratio of -momelotinib IC50 to test compound IC50 for inhibition of human JAK3 kinase domain
experimental readout: Ratio IC50

In [3]: df
Out[3]:
                            chemical_smiles  measurement
0  N#CCNC(=O)c1ccc(-c2nc(Nc3ccc(N4CCC(N5CCOCC5)CC4)cc3)ncc2F)cc1            2

a = N#CCNC(=O)c1ccc(-c2ccnc(Nc3ccc(N4CCC(n5cncn5)CC4)cc3)n2)cc1
b = Cc1cnc(Nc2ccc(N3CCC(N4CCOCC4)CC3)cc2)nc1-c1ccc(C(=O)NCC#N)cc1
c = N#CCNC(=O)c1ccc(-c2nc(Nc3ccc(N4CCC(N5CCOCC5)CC4)cc3)ncc2Cl)cc1
Problem: List these items ordered by Ratio IC50, big to small. List the labels according to the requested ordering.
Solution: b, c, a
(b: 11, c: 5, a: 2)

* * *

target: UniProt O60674; test: Inhibition of human JAK2 kinase domain at 100 nM relative to control
Sequence (O60674 whole entry, the tested form may be a part): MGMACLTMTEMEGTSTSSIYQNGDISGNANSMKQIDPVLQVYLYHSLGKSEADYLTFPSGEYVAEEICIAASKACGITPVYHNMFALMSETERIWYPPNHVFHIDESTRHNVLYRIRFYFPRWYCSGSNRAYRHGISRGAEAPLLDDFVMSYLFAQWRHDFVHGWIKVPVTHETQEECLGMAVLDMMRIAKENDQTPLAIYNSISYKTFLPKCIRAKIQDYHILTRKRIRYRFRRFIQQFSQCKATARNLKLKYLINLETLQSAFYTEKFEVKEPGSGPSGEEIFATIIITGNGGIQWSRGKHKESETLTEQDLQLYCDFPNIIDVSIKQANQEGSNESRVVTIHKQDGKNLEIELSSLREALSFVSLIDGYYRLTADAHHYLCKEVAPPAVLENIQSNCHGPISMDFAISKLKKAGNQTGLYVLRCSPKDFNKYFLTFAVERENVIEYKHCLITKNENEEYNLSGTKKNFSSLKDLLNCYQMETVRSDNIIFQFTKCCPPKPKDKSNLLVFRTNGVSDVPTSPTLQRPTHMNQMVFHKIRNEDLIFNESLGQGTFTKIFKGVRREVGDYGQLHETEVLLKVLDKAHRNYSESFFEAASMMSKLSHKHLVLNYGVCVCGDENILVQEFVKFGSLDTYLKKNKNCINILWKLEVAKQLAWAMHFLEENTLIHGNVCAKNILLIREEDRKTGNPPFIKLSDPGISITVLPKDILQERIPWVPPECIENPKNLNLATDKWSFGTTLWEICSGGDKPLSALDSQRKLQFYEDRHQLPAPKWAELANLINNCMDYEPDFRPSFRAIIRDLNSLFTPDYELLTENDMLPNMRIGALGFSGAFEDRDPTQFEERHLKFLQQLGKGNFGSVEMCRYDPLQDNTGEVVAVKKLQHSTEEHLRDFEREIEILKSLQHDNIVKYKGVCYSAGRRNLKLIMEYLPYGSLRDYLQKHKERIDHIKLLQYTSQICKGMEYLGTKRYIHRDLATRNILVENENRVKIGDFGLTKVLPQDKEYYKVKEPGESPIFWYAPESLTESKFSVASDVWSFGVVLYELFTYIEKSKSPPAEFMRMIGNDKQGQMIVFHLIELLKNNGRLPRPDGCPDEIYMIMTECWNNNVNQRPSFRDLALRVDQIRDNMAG
experimental readout: inhibition (%)

>>> print(df.to_string())
                                   compound  experimental_readout  measurement
0  N#CCNC(=O)c1ccc(-c2ccnc(Nc3ccc(N4CC5COCC5C4)cc3)n2)cc1 (stereo not given)            inhibition           54
1  N#CCNC(=O)c1ccc(-c2ccnc(Nc3ccc(N4CCC5(CC4)COC(=O)C5)cc3)n2)cc1            inhibition           67
2  N#CCNC(=O)c1ccc(-c2ccnc(Nc3ccc(-n4cccn4)cc3)n2)cc1            inhibition           61

I = N#CCNC(=O)c1ccc(-c2ccnc(Nc3ccc(N4CC5CC(C4)O5)cc3)n2)cc1
II = N#CCNC(=O)c1ccc(-c2ccnc(Nc3ccc(N4Cc5c[nH]nc5C4)cc3)n2)cc1
Problem: Input pair: I , II . Output: entry with lower inhibition. Indicate which entry you chose by stating its label.
Solution: II

* * *

test: Aqueous solubility of the compound; assay type: physicochemical; conditions: water
experimental readout: solubility (µg/mL)

>>> print(df.to_string())
                            chemical_smiles  experimental_readout  measurement
0  N#CCNC(=O)c1ccc(-c2nc(Nc3ccc(N4CCC(N5CCOCC5)CC4)cc3)ncc2F)cc1            solubility           58
1  N#CCNC(=O)c1ccc(-c2nc(Nc3ccc(N4CCC(N5CCOCC5)CC4)cc3)ncc2Cl)cc1            solubility           80

I = Cc1cnc(Nc2ccc(N3CCC(N4CCOCC4)CC3)cc2)nc1-c1ccc(C(=O)NCC#N)cc1
II = N#CCNC(=O)c1ccc(-c2ccnc(Nc3ccc(N4CCOCC4)cc3)n2)cc1
Problem: Input pair: I , II . Output: entry with lower solubility. Indicate which entry you chose by stating its label.
Solution: II

* * *

assay: MRT in Wistar rat at 1 mg/kg, iv; assay type: ADME, organism-based; details: in vivo
experimental readout: MRT (h)

P = N#CCNC(=O)c1ccc(-c2ccnc(Nc3ccc(N4CCOCC4)cc3)n2)cc1 [MOMELOTINIB]
Q = Cc1cnc(Nc2ccc(N3CCC(N4CCOCC4)CC3)cc2)nc1-c1ccc(C(=O)NCC#N)cc1
R = N#CCNC(=O)c1ccc(-c2nc(Nc3ccc(N4CCC(N5CCOCC5)CC4)cc3)ncc2F)cc1
Problem: Sort (3 molecules) by MRT: min first. List the labels according to the requested ordering.
Solution: P, Q, R

* * *

assay: Initial plasma concentration in Wistar rat at 1 mg/kg, iv; assay type: ADME, organism-based
experimental readout: C0 (ng/mL)

See these solved cases before continuing.
                            chemical_smiles  experimental_readout  measurement
0  N#CCNC(=O)c1ccc(-c2nc(Nc3ccc(N4CCC(N5CCOCC5)CC4)cc3)ncc2F)cc1                    C0         4700
1  N#CCNC(=O)c1ccc(-c2nc(Nc3ccc(N4CCC(N5CCOCC5)CC4)cc3)ncc2Cl)cc1                    C0          690

P = N#CCNC(=O)c1ccc(-c2ccnc(Nc3ccc(N4CCOCC4)cc3)n2)cc1
Q = Cc1cnc(Nc2ccc(N3CCC(N4CCOCC4)CC3)cc2)nc1-c1ccc(C(=O)NCC#N)cc1
Problem: Input pair: P , Q . Output: entry with lower C0. Indicate which entry you chose by stating its label.
Solution: Q
(Q: 1030 ng/mL, P: 3040 ng/mL)

* * *

molecular target: Tyrosine-protein kinase JAK3 (Homo sapiens); assay: Inhibition of human JAK3 kinase domain at 100 nM relative to control
experimental readout: inhibition (%)

See these solved cases before continuing.
>>> df
                            chemical_smiles  measurement
0  CC(=O)N1C2CC1CN(c1ccc(Nc3nccc(-c4ccc(C(=O)NCC#N)cc4)n3)cc1)C2           29
1  Cc1nc2c(s1)CN(c1ccc(Nc3nccc(-c4ccc(C(=O)NCC#N)cc4)n3)cc1)CC2           31
2  N#CCNC(=O)c1ccc(-c2ccnc(Nc3ccc(N4CCOCC4=O)cc3)n2)cc1           27

a = N#CCNC(=O)c1ccc(-c2ccnc(Nc3ccc(N4CCC5(CCCO5)CC4)cc3)n2)cc1
b = N#CCNC(=O)c1ccc(-c2ccnc(Nc3ccc(N4CCC5(CCOC5)CC4)cc3)n2)cc1
Problem: Input pair: a , b . Output: entry with lower inhibition. Indicate which entry you chose by stating its label.
Solution: a

* * *

assay: Solubility of the compound in acetate buffer at pH 4.5; type: physicochemical
experimental readout: solubility (µg/mL)

>>> print(df.to_string())
                            chemical_smiles  measurement
0  N#CCNC(=O)c1ccc(-c2nc(Nc3ccc(N4CCC(N5CCOCC5)CC4)cc3)ncc2F)cc1          594

P = N#CCNC(=O)c1ccc(-c2nc(Nc3ccc(N4CCC(N5CCOCC5)CC4)cc3)ncc2Cl)cc1
Q = N#CCNC(=O)c1ccc(-c2ccnc(Nc3ccc(N4CCOCC4)cc3)n2)cc1
Problem: Input pair: P , Q . Output: entry with lower solubility. Indicate which entry you chose by stating its label.
Solution: Q

* * *

assay: Oral bioavailability in Wistar rat at 3 mg/kg; type: ADME, organism-based; conditions: in vivo
experimental readout: bioavailability (%)

See these solved cases before continuing.
>>> print(df.to_string())
                            chemical_smiles  experimental_readout  measurement
0  N#CCNC(=O)c1ccc(-c2nc(Nc3ccc(N4CCC(N5CCOCC5)CC4)cc3)ncc2F)cc1       bioavailability          100
1  Cc1cnc(Nc2ccc(N3CCC(N4CCOCC4)CC3)cc2)nc1-c1ccc(C(=O)NCC#N)cc1       bioavailability          100

P = N#CCNC(=O)c1ccc(-c2nc(Nc3ccc(N4CCC(N5CCOCC5)CC4)cc3)ncc2Cl)cc1
Q = N#CCNC(=O)c1ccc(-c2ccnc(Nc3ccc(N4CCOCC4)cc3)n2)cc1
Problem: Input pair: P , Q . Output: entry with lower bioavailability. Indicate which entry you chose by stating its label.
Solution: Q
(Q: 24%, P: 100%)

Recorded values, source ChEMBL document CHEMBL5143663.
